Here the recorded pKi is given for each entry.
experimental_target: CCR9 (Homo sapiens)
Sequence (P51686 1-369): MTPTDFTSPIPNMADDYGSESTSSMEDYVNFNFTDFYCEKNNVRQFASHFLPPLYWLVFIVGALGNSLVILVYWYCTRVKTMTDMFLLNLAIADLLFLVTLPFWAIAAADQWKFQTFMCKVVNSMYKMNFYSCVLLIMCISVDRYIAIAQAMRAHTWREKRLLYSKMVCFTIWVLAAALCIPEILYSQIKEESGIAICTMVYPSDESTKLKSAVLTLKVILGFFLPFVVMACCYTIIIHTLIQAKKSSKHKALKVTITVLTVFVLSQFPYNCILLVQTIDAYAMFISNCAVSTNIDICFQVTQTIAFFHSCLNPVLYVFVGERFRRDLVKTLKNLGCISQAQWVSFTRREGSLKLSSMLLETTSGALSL
assay_name: FLIPR calcium flux assay using MOLT4 cells (TECK stimulation)
Format: cell-based
Parameters: endogenous in cells; host or cells: MOLT4 (human T-cell line)
experimental_parameters: MOLT4 cells (a human T-cell line); Ki determined from IC50 of TECK-induced intracellular calcium increase
The quantity pKi is defined as the negative base-10 logarithm of the molar concentration.

// below: answered compounds
- given_smiles: "COc1ccc(NS(=O)(=O)c2ccc(C(C)(C)C)cc2)n2nc(-c3cccnc3)cc12"
  pKi: 6.42
- given_smiles: "CC(C)c1cc2nccc(NS(=O)(=O)c3ccc(C(C)(C)C)cc3)n2n1"
  pKi: 6.53
- given_smiles: "O=S(=O)(Nc1ccnc2cc(-c3ccc(Cl)cc3)nn12)c1ccc(-c2cnco2)cc1"
  pKi: 5.86

// pKi lookup, key: `Cc1cc2nccc(NS(=O)(=O)c3ccc(N4CCOCC4)cc3)n2n1` 5.40

* * *

experimental_target: CCR9 (Homo sapiens, UniProt P51686)
Sequence (P51686 1-369): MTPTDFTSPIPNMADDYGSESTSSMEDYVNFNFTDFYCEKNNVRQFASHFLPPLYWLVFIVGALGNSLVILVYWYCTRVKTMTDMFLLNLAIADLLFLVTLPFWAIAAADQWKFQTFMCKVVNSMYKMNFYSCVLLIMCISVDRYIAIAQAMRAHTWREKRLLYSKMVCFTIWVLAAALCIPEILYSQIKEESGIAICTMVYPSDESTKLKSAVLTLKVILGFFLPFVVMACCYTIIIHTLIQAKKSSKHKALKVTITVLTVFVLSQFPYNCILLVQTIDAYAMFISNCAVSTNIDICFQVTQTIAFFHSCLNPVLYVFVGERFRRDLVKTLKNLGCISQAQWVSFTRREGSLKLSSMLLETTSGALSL
assay_name: FLIPR calcium flux assay using MOLT4 cells (TECK stimulation)
Format: cell-based
Design: endogenous in cells; host or cells: MOLT4 (human T-cell line)
experimental_parameters: MOLT4 cells (a human T-cell line); Ki determined from IC50 of TECK-induced intracellular calcium increase
The reader will find reported Ki values listed item by item below.
The reply should contain only the number, in nM.

Consider the worked cases shown below.
- compound: "Cc1cc2nccc(NS(=O)(=O)c3ccc(Br)cc3)n2n1 [Compound 28]"
  measured_parameter: "Ki"
  readout_units: "nM"
  measurement: 6190
- compound: "O=S(=O)(Nc1ccc(Cl)c2cc(-c3cncc(F)c3)nn12)c1ccc(C(F)(F)F)cc1 [Compound 133]"
  measured_parameter: "Ki"
  readout_units: "nM"
  measurement: 182
- compound: "Cc1cc2c(Cl)ccc(NS(=O)(=O)c3ccc(C(C)(C)C)cc3)n2n1 [Compound 94]"
  measured_parameter: "Ki"
  readout_units: "nM"
  measurement: 162
- compound: "CC(C)(C)c1ccc(S(=O)(=O)Nc2ccc(Cl)c3cc(-c4cccnc4)nn23)cc1 [Compound 110]"
  measured_parameter: "Ki"
  readout_units: "nM"
  measurement: 115
- compound: "CC(C)(C)c1ccc(S(=O)(=O)Nc2ccc(C#N)c3cc(-c4cncc(C#N)c4)nn23)cc1 [Compound 154]"
  measured_parameter: "Ki"
  readout_units: "nM"
  measurement: 76
- compound: "Cc1cc2nccc(NS(=O)(=O)c3ccc(-c4cnco4)cc3)n2n1 [Compound 1]"
  measured_parameter: "Ki"
  readout_units: "nM"
  measurement: 19
- compound: "Cc1cc2nccc(NS(=O)(=O)c3ccc(OC(F)F)cc3)n2n1 [Compound 33]"
  measured_parameter: "Ki"
  readout_units: "nM"
  measurement: 1210
- compound: "Cc1cc2nccc(NS(=O)(=O)c3cccc(C(C)(C)C)c3)n2n1 [Compound 32]"
  measured_parameter: "Ki"
  readout_units: "nM"
  measurement: 1780

Can you share its Ki? I mean this compound: COc1ccc(-c2cc3c(C#N)ccc(NS(=O)(=O)c4ccc(C(C)(C)C)cc4)n3n2)c(OC)n1 [Compound 210] 149

Try this compound too: CC(C)n1cc(-c2cc3c(Cl)ccc(NS(=O)(=O)c4ccc(C(C)(C)C)cc4)n3n2)cn1 [Compound 186] 31

Would you kindly repeat that for Cn1cnc(-c2cc3c(Cl)ccc(NS(=O)(=O)c4ccc(C(C)(C)C)cc4)n3n2)c1 [Compound 182] ? 80

Try this compound next: CCn1cc(-c2cc3c(C#N)ccc(NS(=O)(=O)c4ccc(C(C)(C)C)cc4)n3n2)cn1 [Compound 189] 10

Now try CC(C)(C)c1ccc(S(=O)(=O)Nc2ccc(Cl)c3cc(-c4ccc[n+]([O-])c4)nn23)cc1 [Compound 111] . 56

// same read-out, input: Cn1ccc(-c2cc3c(C#N)ccc(NS(=O)(=O)c4ccc(C(C)(C)C)cc4)n3n2)c1 [Compound 159] 96

Lookup CC(C)(C)c1ccc(S(=O)(=O)Nc2ccc(C#N)c3cc(-c4ccccn4)nn23)cc1 [Compound 193] 81

Check COc1cncc(-c2cc3c(Cl)ccc(NS(=O)(=O)c4ccc(C(F)(F)F)cc4)n3n2)c1 [Compound 128] too. 170

Another compound to check: CCc1cc2nccc(NS(=O)(=O)c3ccc(C(C)(C)C)cc3)n2n1 [Compound 85] 111

* * *

experimental_target: CCR9 (Homo sapiens, UniProt P51686)
Sequence (P51686 1-369): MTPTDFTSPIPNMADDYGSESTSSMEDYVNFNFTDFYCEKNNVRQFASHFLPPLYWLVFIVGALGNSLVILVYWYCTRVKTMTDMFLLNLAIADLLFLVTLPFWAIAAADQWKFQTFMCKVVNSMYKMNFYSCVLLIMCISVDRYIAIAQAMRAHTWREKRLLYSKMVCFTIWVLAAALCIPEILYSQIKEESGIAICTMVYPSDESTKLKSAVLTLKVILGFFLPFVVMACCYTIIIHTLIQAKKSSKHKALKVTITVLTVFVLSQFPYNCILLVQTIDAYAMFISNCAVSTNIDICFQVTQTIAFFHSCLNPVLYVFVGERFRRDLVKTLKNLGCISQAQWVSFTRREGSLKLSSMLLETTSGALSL
assay_name: FLIPR calcium flux assay using MOLT4 cells (TECK stimulation)
Format: cell-based
Parameters: endogenous in cells; host or cells: MOLT4 (human T-cell line)
experimental_parameters: MOLT4 cells (a human T-cell line); Ki determined from IC50 of TECK-induced intracellular calcium increase
measured_parameter: pKi
Remember, pKi is on a log scale: it is -log10 of the molar concentration.

Answered cases to consult:
- given_smiles: "Cn1cc(-c2cc3c(Br)ccc(NS(=O)(=O)c4ccc(C(C)(C)C)cc4)n3n2)cn1"
  experimental_target: "CCR9 (Homo sapiens, UniProt P51686)"
  pKi: 6.89
- given_smiles: "O=S(=O)(Nc1ccc(Cl)c2cc(-c3ccc[n+]([O-])c3)nn12)c1ccc(OC(F)(F)F)cc1"
  experimental_target: "CCR9 (Homo sapiens, UniProt P51686)"
  pKi: 5.99
- given_smiles: "Cc1cc2c(Cl)ccc(NS(=O)(=O)c3ccc(C(C)(C)C#N)cc3)n2n1"
  experimental_target: "CCR9 (Homo sapiens, UniProt P51686)"
  pKi: 6.96
- given_smiles: "O=S(=O)(Nc1ccnc2cc(C3CC3)nn12)c1cccc(C(F)(F)F)c1"
  experimental_target: "CCR9 (Homo sapiens, UniProt P51686)"
  pKi: 5.23

Give recorded pKi with CCR9 (Homo sapiens, UniProt P51686) for the following compound: `Cc1c(-c2cc3c(Cl)ccc(NS(=O)(=O)c4ccc(C(C)(C)C)cc4)n3n2)cnn1C` 6.50

Another: `Cn1ccc(-c2cc3c(Cl)ccc(NS(=O)(=O)c4ccc(C(C)(C)C)cc4)n3n2)n1` 7.02

Please give the result for `CC(C)(C)c1ccc(S(=O)(=O)Nc2ccc(Cl)c3cc(-c4cnco4)nn23)cc1` too. 6.79

Would you kindly repeat that for `CC(C)(C)c1ccc(S(=O)(=O)Nc2ccc(C#N)c3cc(-c4cncc(F)c4)nn23)cc1` ? 7.29

* * *

experimental_target: CCR9 (Homo sapiens, UniProt P51686)
assay_name: FLIPR calcium flux assay using hCCR9 over expressed cells (TECK stimulation)
Assay type: cell-based
Design: expressed in transfected cells; host or cells: Chem-1 cells overexpressing hCCR9
experimental_parameters: Chem1-hCCR9 overexpressing cells; Ki determined from IC50 of TECK-induced intracellular calcium increase
pKi: −log10 of the molar value.
Label scheme for pKi: lower than 7 is NOT MET, 7 and above is MET.

Some entries whose results are on file:
- given_smiles: "Cn1ccc(-c2cc3c(C#N)ccc(NS(=O)(=O)c4ccc(C(C)(C)C)cc4)n3n2)n1"
  group_label: "MET"
- given_smiles: "O=S(=O)(Nc1ccc(Cl)c2cc(-c3cccnc3)nn12)c1ccc(C(F)(F)F)cc1"
  group_label: "NOT MET"
- given_smiles: "COc1ccc(-c2cc3c(C#N)ccc(NS(=O)(=O)c4ccc(C(C)(C)C)cc4)n3n2)cn1"
  group_label: "MET"

Could you verify whether the entry `CC(C)n1cc(-c2cc3c(C#N)ccc(NS(=O)(=O)c4ccc(C(C)(C)C)cc4)n3n2)cn1` shows pKi of no less than 7? MET

// query: `Cc1cc2c(Cl)ccc(NS(=O)(=O)c3ccc(C(C)(C)C)cc3)n2n1` NOT MET
